Biological target: HDAC6 human recombinant (Homo sapiens, UniProt Q9UBN7)
Construct: purchased Calbiochem 382180
Sequence (Q9UBN7 whole entry): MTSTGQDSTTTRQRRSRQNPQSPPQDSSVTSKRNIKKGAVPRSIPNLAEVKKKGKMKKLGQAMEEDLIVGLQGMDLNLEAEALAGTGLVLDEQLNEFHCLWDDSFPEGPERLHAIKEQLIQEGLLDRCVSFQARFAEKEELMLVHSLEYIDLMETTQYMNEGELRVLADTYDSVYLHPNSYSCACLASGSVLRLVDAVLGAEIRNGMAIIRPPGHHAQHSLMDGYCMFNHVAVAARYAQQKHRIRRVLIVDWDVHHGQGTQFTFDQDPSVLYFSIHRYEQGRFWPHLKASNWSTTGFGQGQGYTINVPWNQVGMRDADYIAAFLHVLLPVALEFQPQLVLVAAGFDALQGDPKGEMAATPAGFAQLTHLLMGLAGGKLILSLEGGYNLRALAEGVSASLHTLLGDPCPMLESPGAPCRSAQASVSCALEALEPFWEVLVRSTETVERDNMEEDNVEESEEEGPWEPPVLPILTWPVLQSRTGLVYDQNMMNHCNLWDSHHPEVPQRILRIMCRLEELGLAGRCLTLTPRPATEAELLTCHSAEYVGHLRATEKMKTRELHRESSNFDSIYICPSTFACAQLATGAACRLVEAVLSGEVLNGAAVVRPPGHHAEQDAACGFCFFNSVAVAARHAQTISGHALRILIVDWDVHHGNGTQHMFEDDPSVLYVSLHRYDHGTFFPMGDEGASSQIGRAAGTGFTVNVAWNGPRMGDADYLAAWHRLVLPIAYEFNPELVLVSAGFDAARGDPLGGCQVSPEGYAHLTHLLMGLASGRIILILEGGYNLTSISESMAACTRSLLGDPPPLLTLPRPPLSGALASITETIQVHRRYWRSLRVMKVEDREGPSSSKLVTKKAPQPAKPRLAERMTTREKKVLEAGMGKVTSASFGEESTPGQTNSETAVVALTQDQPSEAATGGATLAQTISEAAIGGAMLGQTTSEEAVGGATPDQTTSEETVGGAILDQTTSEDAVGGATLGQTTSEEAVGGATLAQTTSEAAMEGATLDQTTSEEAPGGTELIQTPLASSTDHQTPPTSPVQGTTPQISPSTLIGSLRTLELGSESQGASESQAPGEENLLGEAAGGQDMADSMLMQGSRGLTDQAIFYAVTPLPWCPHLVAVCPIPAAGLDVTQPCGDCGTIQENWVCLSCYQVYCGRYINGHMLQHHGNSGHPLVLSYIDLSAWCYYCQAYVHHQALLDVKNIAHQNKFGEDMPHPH
Assay: HDAC enzyme activity inhibition (in vitro), HDAC6 assay
Format: biochemical
Reported pIC50 by item:
Lab note: report pIC50 as minus log10 of the concentration in molar units, number only.

Consider O=c1n(Cc2ccc(-c3nnc(C(F)F)o3)cn2)c2cc(Cl)ccc2n1C1CCN(CC(F)(F)C(F)(F)C(F)(F)F)CC1 . Its measured pIC50 is 6.19

Consider CC(=O)N1CCC(N2CCC(n3c(=O)n(Cc4ccc(-c5nnc(C(F)F)o5)cn4)c4cc(F)ccc43)CC2)CC1 . Its measured pIC50 is 7.42

* * *

Target: HDAC6 human recombinant (Homo sapiens)
Construct: purchased Calbiochem 382180
Assay: HDAC enzyme activity inhibition (in vitro), HDAC6 assay
Assay type: biochemical
Conditions: samples at 0.1, 1, 10, 100 and 1000 nM; 37° C. 60 minutes; fluorescence Ex 390, Em 460; read-out: HDAC6 IC50
parameter: IC50 (nM)

Solved entries:
{"substanceSmiles": "O=c1n(Cc2ccc(-c3nnc(C(F)F)o3)cn2)c2cc(F)ccc2n1CC1CCN(C2COC2)CC1", "testTarget": "HDAC6 human recombinant (Homo sapiens)", "recordedMeasurement": 29}
{"substanceSmiles": "CN1CCN(c2ncc(-c3cc4c(cc3F)n(Cc3ccc(-c5nnc(C(F)F)o5)cn3)c(=O)n4C)cn2)CC1", "testTarget": "HDAC6 human recombinant (Homo sapiens)", "recordedMeasurement": 16}

P = CN1CCC(n2c(=O)n(Cc3ccc(-c4nnc(C(F)F)o4)cn3)c3cc(F)c(-c4cc5ccccc5n4C(=O)OC(C)(C)C)cc32)CC1
Q = O=c1n(Cc2ccc(-c3nnc(C(F)F)o3)cn2)c2cc(F)c(N3CCN(C4COC4)CC3)cc2n1-c1cccnc1
Ask | Given the listed records, identify the one among P and Q with higher IC50. Return value: the label identifying the chosen record.
Reply | P
(P: 271 nM, Q: 127 nM)

I = CN1CCC(n2c(=O)n(Cc3ccc(-c4nnc(C(F)F)o4)cc3)c3ccc(Cl)cc32)CC1
II = CN1CCC(n2c(=O)n(Cc3ccc(-c4nnc(C(F)F)o4)cn3)c3ccc(-c4ccoc4)cc32)CC1
Ask | Given the listed records, identify the one among I and II with higher IC50. Return value: the label identifying the chosen record.
Reply | I
(I: 37 nM, II: 19 nM)

* * *

Target: HDAC6 human recombinant (Homo sapiens, UniProt Q9UBN7)
Construct: purchased Calbiochem 382180
Assay: HDAC enzyme activity inhibition (in vitro), HDAC6 assay
Type: biochemical
Details: samples at 0.1, 1, 10, 100 and 1000 nM; 37° C. 60 minutes; fluorescence Ex 390, Em 460; read-out: HDAC6 IC50
parameter: IC50 (nM)

Solved entries:
{"substanceSmiles": "O=c1oc2cc(Cl)ccc2n1Cc1ccc(-c2nnc(C(F)F)o2)cn1", "IC50 [nM]": 46}
{"substanceSmiles": "O=c1oc2cc(-c3ccc(N4CCN(CC(F)(F)F)CC4)nc3)c(F)cc2n1Cc1ccc(-c2nnc(C(F)F)o2)cn1", "IC50 [nM]": 151}
{"substanceSmiles": "CN1CC(n2c(=O)n(Cc3ccc(-c4nnc(C(F)F)o4)cn3)c3cc(F)c(-c4ccncc4)cc32)C1", "IC50 [nM]": 14}
{"substanceSmiles": "O=c1n(Cc2ccc(-c3nnc(C(F)F)o3)cn2)c2ccc(F)cc2n1C1CCN(C2COC2)CC1", "IC50 [nM]": 92}
{"substanceSmiles": "CN1CCC(n2c(=O)n(Cc3ccc(-c4nnc(C(F)F)o4)cc3F)c3cc(F)c(-c4ccccc4F)cc32)CC1", "IC50 [nM]": 84}

I = CC(C)(C)OC(=O)N1CCC(n2cc(-c3cc4oc(=O)n(Cc5ccc(-c6nnc(C(F)F)o6)cn5)c4cc3F)cn2)CC1
II = CN1CCC(n2c(=O)n(Cc3ccc(-c4nnc(C(F)F)o4)cn3)c3cc(F)c(-c4cccc(F)c4)cc32)CC1
III = Cn1c(=O)n(Cc2ccc(-c3nnc(C(F)F)o3)cn2)c2ccc(-c3cn[nH]c3)cc21
Ask | Sort the molecules on IC50; start with the lowest figure. Response field: labels, in requested order.
Reply | III, II, I

1 = CN1CCN(c2ncc(-c3cc4oc(=O)n(Cc5ccc(-c6nnc(C(F)F)o6)cn5)c4cc3F)cn2)CC1
2 = CC(C)(C)OC(=O)N1CCN(c2cc3oc(=O)n(Cc4ccc(-c5nnc(C(F)F)o5)cn4)c3cc2F)CC1
Ask | Would you mind telling me which has the lower recorded IC50 between 1 and 2 ? Return value: the label identifying the chosen record.
Reply | 1

1 = O=c1oc2cc(-c3ccnc(N4CCN(C5COC5)CC4)c3)c(F)cc2n1Cc1ccc(-c2nnc(C(F)F)o2)cn1
2 = Cn1c(=O)n(Cc2ccc(-c3nnc(C(F)F)o3)cn2)c2cc(F)c(N3CCN(Cc4cn[nH]c4)CC3)cc21
Ask | Would you mind telling me which has the lower recorded IC50 between 1 and 2 ? Return value: the label identifying the chosen record.
Reply | 2
(2: 33 nM, 1: 52 nM)

I = CN1CCC(n2c(=O)n(Cc3ccc(-c4nnc(C(F)F)o4)cc3F)c3ccc(-c4ccncc4)cc32)CC1
II = O=c1n(Cc2ccc(-c3nnc(C(F)F)o3)cc2F)c2ccc(Cl)cc2n1C1CCN(C2COC2)CC1
III = O=c1n(Cc2ccc(-c3nnc(C(F)F)o3)cn2)c2ccccc2n1C1COC1
IV = CCN1CCC[C@H](n2c(=O)n(Cc3ccc(-c4nnc(C(F)F)o4)cn3)c3cc(F)c(-c4cccnc4)cc32)C1
V = CN1CCC(n2c(=O)n(Cc3ccc(-c4nnc(C(F)F)o4)cn3)c3cc(F)c(-c4cccnc4)cc32)CC1
Ask | Sort the molecules on IC50; start with the lowest figure. Response field: labels, in requested order.
Reply | IV, V, I, II, III
(IV: 9 nM, V: 20 nM, I: 40 nM, II: 59 nM, III: 241 nM)
